These entries and their values trace back to the supplement of paper PMC11061612.

Each entry below carries its reported combination Emax.
Test system: ATN-1 (T-Lymphoblastic Leukemia)
Method: combination Emax (second highest fraction inhibited in the dose matrix, 72 h); higher = more inhibition; extreme values may be limits of the assay

{"Molecule": "CCc1c2c(nc3ccc(O)cc13)-c1cc3c(c(=O)n1C2)COC(=O)[C@]3(O)CC [SN-38] + O=C(c1cc(Cc2n[nH]c(=O)c3ccccc23)ccc1F)N1CCN(C(=O)C2CC2)CC1 [Olaparib] (first compound max 0.3 µM, 7x7, partner max 10 µM)", "combination Emax": 1}
{"Molecule": "CC1(C)CCC(CN2CCN(c3ccc(C(=O)NS(=O)(=O)c4ccc(NCC5CCOCC5)c([N+](=O)[O-])c4)c(Oc4cnc5[nH]ccc5c4)c3)CC2)=C(c2ccc(Cl)cc2)C1 [Venetoclax] + C=CCn1c(=O)c2cnc(Nc3ccc(N4CCN(C)CC4)cc3)nc2n1-c1cccc(C(C)(C)O)n1 [AZD1775] (first compound max 1 µM, partner max 1 µM)", "combination Emax": 0.977}
{"Molecule": "COc1nnc2ccc(N3CCC(c4ccc(OCCN5CCN(C)C(=O)[C@H]5C)cc4)CC3)nn12 [AZD5153] + C=CCn1c(=O)c2cnc(Nc3ccc(N4CCN(C)CC4)cc3)nc2n1-c1cccc(C(C)(C)O)n1 [AZD1775] (first compound max 1 µM, partner max 1 µM)", "combination Emax": 0.98}

###

System: SW1463 (Colorectal Carcinoma)
Method: Bliss excess, mean over the matrix (fraction); higher = more synergy
Property measured: Bliss excess

{"Compound": "CN(CCO)CC[C@H](CSc1ccccc1)Nc1ccc(S(=O)(=O)NC(=O)c2ccc(N3CCC([C@@H](O)c4ccccc4-c4ccc(Cl)cc4)CC3)cc2)cc1S(=O)(=O)C(F)(F)F [AZD4320] + CC(=O)O[C@H]1C(=O)[C@@]2(C)[C@H]([C@H](OC(=O)c3ccccc3)[C@]3(O)C[C@H](OC(=O)[C@H](O)[C@@H](NC(=O)c4ccccc4)c4ccccc4)C(C)=C1C3(C)C)[C@]1(OC(C)=O)CO[C@@H]1C[C@@H]2O [Paclitaxel] (first compound max 1 µM, 7x7, partner max 3 µM)", "Meas value": 0.0662}
{"Compound": "C=CCn1c(=O)c2cnc(Nc3ccc(N4CCN(C)CC4)cc3)nc2n1-c1cccc(C(C)(C)O)n1 [AZD1775] + C[C@@H]1COCCN1C2=NC(=NC(=C2)C3(CC3)[S@](=N)(=O)C)C4=C5C=CNC5=NC=C4 [AZD6738] (first compound max 1 µM, partner max 10 µM)", "Meas value": -0.0807}
{"Compound": "N#Cc1cnc(Nc2cc(NC[C@H]3CNCCO3)c(C(F)(F)F)cn2)cn1 [SRA737] + CCc1c2c(nc3ccc(O)cc13)-c1cc3c(c(=O)n1C2)COC(=O)[C@]3(O)CC [SN-38] (first compound max 10 µM, 7x7, partner max 0.3 µM)", "Meas value": 0.0621}
{"Compound": "CC1(C)CCC(CN2CCN(c3ccc(C(=O)NS(=O)(=O)c4ccc(NCC5CCOCC5)c([N+](=O)[O-])c4)c(Oc4cnc5[nH]ccc5c4)c3)CC2)=C(c2ccc(Cl)cc2)C1 [Venetoclax] + C=CCn1c(=O)c2cnc(Nc3ccc(N4CCN(C)CC4)cc3)nc2n1-c1cccc(C(C)(C)O)n1 [AZD1775] (first compound max 1 µM, partner max 1 µM)", "Meas value": -0.0942}
{"Compound": "NC1(C(=O)N[C@@H](CCO)c2ccc(Cl)cc2)CCN(c2ncnc3[nH]ccc23)CC1 [Capivasertib] + Cn1cnc2c(F)c(Nc3ccc(Br)cc3Cl)c(C(=O)NOCCO)cc21 [Selumetinib] (first compound max 10 µM, 7x7, partner max 10 µM)", "Meas value": -0.0255}
{"Compound": "Cc1c2c(nn1C)CSCc1cc(n(C)n1)CSc1cc(c3ccccc3c1)OCCCc1c(C(=O)O)n(C)c3c-2c(Cl)ccc13 [AZD5991] + C=CCn1c(=O)c2cnc(Nc3ccc(N4CCN(C)CC4)cc3)nc2n1-c1cccc(C(C)(C)O)n1 [AZD1775] (first compound max 1 µM, partner max 1 µM)", "Meas value": -0.0158}

###

Test system: HT-3 (Cervical Carcinoma)
Method: Bliss excess, mean over the matrix (fraction); higher = more synergy
Each entry below carries its reported Bliss excess.
Property measured: Bliss excess

{"Molecule": "Cc1c2c(nn1C)CSCc1cc(n(C)n1)CSc1cc(c3ccccc3c1)OCCCc1c(C(=O)O)n(C)c3c-2c(Cl)ccc13 [AZD5991] + CN(C)CCCOc1ccc(-c2ccc3ncc4c(c3c2)n(C2CCOCC2)c(=O)n4C)cn1 [AZD0156] (first compound max 1 µM, 7x7, partner max 1 µM)", "Meas value": 0.0222}
{"Molecule": "Cn1cnc2c(F)c(Nc3ccc(Br)cc3Cl)c(C(=O)NOCCO)cc21 [Selumetinib] + C[C@@H]1COCCN1C2=NC(=NC(=C2)C3(CC3)[S@](=N)(=O)C)C4=C5C=CNC5=NC=C4 [AZD6738] (first compound max 10 µM, 7x7, partner max 10 µM)", "Meas value": 0.063}
{"Molecule": "C[C@@H](c1ccc2nccn2c1)n1nnc2ncc(-c3cnn(C)c3)nc21 [Savolitinib] + CN(CC[C@H](CSC1=CC=CC=C1)NC2=C(C=C(C=C2)S(=O)(=O)NC(=O)C3=CC=C(C=C3)N4CCC(CC4)[C@H](C5=CC=CC=C5C6=CC=C(C=C6)Cl)O)S(=O)(=O)C(F)(F)F)CCO [AZD4320] (first compound max 1 µM, 7x7, partner max 1 µM)", "Meas value": -0.0238}

###

Each entry below carries its reported combination Emax.
Tested on: RS4-11 (B-Lymphoblastic Leukemia)
Method: combination Emax (second highest fraction inhibited in the dose matrix, 72 h); higher = more inhibition; extreme values may be limits of the assay

{"Molecule": "CC1(C)CCC(CN2CCN(c3ccc(C(=O)NS(=O)(=O)c4ccc(NCC5CCOCC5)c([N+](=O)[O-])c4)c(Oc4cnc5[nH]ccc5c4)c3)CC2)=C(c2ccc(Cl)cc2)C1 [Venetoclax] + C=CCn1c(=O)c2cnc(Nc3ccc(N4CCN(C)CC4)cc3)nc2n1-c1cccc(C(C)(C)O)n1 [AZD1775] (first compound max 1 µM, partner max 1 µM)", "Target or system": "RS4-11 (B-Lymphoblastic Leukemia)", "combination Emax": 1}
{"Molecule": "CCN(CCO)CCCOc1ccc2c(Nc3cc(CC(=O)Nc4cccc(F)c4)[nH]n3)ncnc2c1 [AZD2811] + C=CCn1c(=O)c2cnc(Nc3ccc(N4CCN(C)CC4)cc3)nc2n1-c1cccc(C(C)(C)O)n1 [AZD1775] (first compound max 1 µM, partner max 1 µM)", "Target or system": "RS4-11 (B-Lymphoblastic Leukemia)", "combination Emax": 0.965}
{"Molecule": "CC(=O)c1c(C)c2cnc(Nc3ccc(N4CCNCC4)cn3)nc2n(C2CCCC2)c1=O [Palbociclib] + Cn1cnc2c(F)c(Nc3ccc(Br)cc3Cl)c(C(=O)NOCCO)cc21 [Selumetinib] (first compound max 10 µM, 7x7, partner max 10 µM)", "Target or system": "RS4-11 (B-Lymphoblastic Leukemia)", "combination Emax": 0.488}
{"Molecule": "Cn1cnc2c(F)c(Nc3ccc(Br)cc3Cl)c(C(=O)NOCCO)cc21 [Selumetinib] + C=CCn1c(=O)c2cnc(Nc3ccc(N4CCN(C)CC4)cc3)nc2n1-c1cccc(C(C)(C)O)n1 [AZD1775] (first compound max 10 µM, partner max 1 µM)", "Target or system": "RS4-11 (B-Lymphoblastic Leukemia)", "combination Emax": 0.979}

###

Test system: GRANTA-519 (B-Cell Non-Hodgkin's Lymphoma)
Method: combination Emax (second highest fraction inhibited in the dose matrix, 72 h); higher = more inhibition; extreme values may be limits of the assay
Each entry falls in a class defined on combination Emax; the bands are low: < 0.7; moderate: ≥ 0.7 and < 0.9; high: ≥ 0.9

{"Compound": "COc1cccc(OCCCN)c1-c1cc(Nc2cnc(C#N)cn2)n[nH]1 [Prexasertib] + C[C@@H]1COCCN1C2=NC(=NC(=C2)C3(CC3)[S@](=N)(=O)C)C4=C5C=CNC5=NC=C4 [AZD6738] (first compound max 1 µM, 7x7, partner max 10 µM)", "Class name": "moderate"}
{"Compound": "Cn1cnc2c(F)c(Nc3ccc(Br)cc3Cl)c(C(=O)NOCCO)cc21 [Selumetinib] + CC(C)n1c(=O)n(C)c2cnc3cc(F)c(-c4ccc(OCCCN5CCCCC5)nc4)cc3c21 [AZD1390] (first compound max 10 µM, 7x7, partner max 0.3 µM)", "Class name": "low"}
{"Compound": "CC1(C)CCC(CN2CCN(c3ccc(C(=O)NS(=O)(=O)c4ccc(NCC5CCOCC5)c([N+](=O)[O-])c4)c(Oc4cnc5[nH]ccc5c4)c3)CC2)=C(c2ccc(Cl)cc2)C1 [Venetoclax] + Cn1cnc2c(F)c(Nc3ccc(Br)cc3Cl)c(C(=O)NOCCO)cc21 [Selumetinib] (first compound max 1 µM, 7x7, partner max 3 µM)", "Class name": "low"}
{"Compound": "COc1cccc(OCCCN)c1-c1cc(Nc2cnc(C#N)cn2)n[nH]1 [Prexasertib] + Cc1cc2ncnn2cc1Nc1ncc2c(n1)n(C1CCOCC1)c(=O)n2C [AZD7648] (first compound max 1 µM, 7x7, partner max 10 µM)", "Class name": "moderate"}
{"Compound": "COc1cccc2c1C(=O)c1c(O)c3c(c(O)c1C2=O)C[C@@](O)(C(=O)CO)C[C@@H]3O[C@H]1C[C@H](N)[C@H](O)[C@H](C)O1 [Doxorubicin] + Cc1cc2ncnn2cc1Nc1ncc2c(n1)n(C1CCOCC1)c(=O)n2C [AZD7648] (first compound max 1 µM, 7x7, partner max 10 µM)", "Class name": "moderate"}
{"Compound": "CN(CCO)CC[C@H](CSc1ccccc1)Nc1ccc(S(=O)(=O)NC(=O)c2ccc(N3CCC([C@@H](O)c4ccccc4-c4ccc(Cl)cc4)CC3)cc2)cc1S(=O)(=O)C(F)(F)F [AZD4320] + CCN(CCO)CCCOc1ccc2c(Nc3cc(CC(=O)Nc4cccc(F)c4)[nH]n3)ncnc2c1 [AZD2811] (first compound max 1 µM, 7x7, partner max 1 µM)", "Class name": "high"}
{"Compound": "NC1(C(=O)N[C@@H](CCO)c2ccc(Cl)cc2)CCN(c2ncnc3[nH]ccc23)CC1 [Capivasertib] + Cn1cnc2c(F)c(Nc3ccc(Br)cc3Cl)c(C(=O)NOCCO)cc21 [Selumetinib] (first compound max 10 µM, 7x7, partner max 10 µM)", "Class name": "low"}
{"Compound": "COc1cccc(OCCCN)c1-c1cc(Nc2cnc(C#N)cn2)n[nH]1 [Prexasertib] + C=CCn1c(=O)c2cnc(Nc3ccc(N4CCN(C)CC4)cc3)nc2n1-c1cccc(C(C)(C)O)n1 [AZD1775] (first compound max 1 µM, partner max 1 µM)", "Class name": "moderate"}
{"Compound": "Cc1c2c(nn1C)CSCc1cc(n(C)n1)CSc1cc(c3ccccc3c1)OCCCc1c(C(=O)O)n(C)c3c-2c(Cl)ccc13 [AZD5991] + CN(C)CCCOc1ccc(-c2ccc3ncc4c(c3c2)n(C2CCOCC2)c(=O)n4C)cn1 [AZD0156] (first compound max 1 µM, 7x7, partner max 1 µM)", "Class name": "low"}
{"Compound": "CN(CCO)CC[C@H](CSc1ccccc1)Nc1ccc(S(=O)(=O)NC(=O)c2ccc(N3CCC([C@@H](O)c4ccccc4-c4ccc(Cl)cc4)CC3)cc2)cc1S(=O)(=O)C(F)(F)F [AZD4320] + C[C@@H](Nc1cc(F)cc(F)c1)c1cc(C(=O)N(C)C)cc2c(=O)cc(N3CCOCC3)oc12 [AZD8186] (first compound max 1 µM, 7x7, partner max 3 µM)", "Class name": "high"}
{"Compound": "CN(C)CCCOc1ccc(-c2ccc3ncc4c(c3c2)n(C2CCOCC2)c(=O)n4C)cn1 [AZD0156] + C=CCn1c(=O)c2cnc(Nc3ccc(N4CCN(C)CC4)cc3)nc2n1-c1cccc(C(C)(C)O)n1 [AZD1775] (first compound max 1 µM, partner max 1 µM)", "Class name": "moderate"}
